Consider the following compounds; for each one, report its IC50.
biological target: Cytochrome P450 2B1 (Rattus norvegicus, UniProt P00176); experiment: Inhibitory potency to aminopyrine N-demethylase activity (P450) in hepatic microsomes from phenobarbitone-induced rats.; assay type: ADME, Liver; conditions: read-out: pI50 (converted)
Sequence (P00176 whole entry): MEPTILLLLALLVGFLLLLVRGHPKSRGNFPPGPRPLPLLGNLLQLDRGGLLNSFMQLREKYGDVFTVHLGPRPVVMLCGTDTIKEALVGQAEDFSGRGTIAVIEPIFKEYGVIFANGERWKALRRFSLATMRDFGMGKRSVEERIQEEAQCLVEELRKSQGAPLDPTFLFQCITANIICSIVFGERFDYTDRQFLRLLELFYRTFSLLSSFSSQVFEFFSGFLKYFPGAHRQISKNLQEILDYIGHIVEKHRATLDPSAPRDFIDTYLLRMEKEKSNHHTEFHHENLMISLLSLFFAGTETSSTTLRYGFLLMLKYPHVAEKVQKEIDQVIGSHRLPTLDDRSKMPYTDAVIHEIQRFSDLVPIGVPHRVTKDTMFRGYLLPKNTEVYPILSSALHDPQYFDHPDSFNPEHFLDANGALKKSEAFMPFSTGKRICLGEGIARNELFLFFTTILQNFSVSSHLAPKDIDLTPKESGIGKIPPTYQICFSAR
Give the value in µM but do not write µM after it.

Recorded IC50 for Cc1ccc(OCc2nc3ccccc3[nH]2)cc1 , please?
44.7

Recorded IC50 for c1ccc(CCc2nc3ccccc3[nH]2)cc1 , please?
38.9

Recorded IC50 for c1ccc(CCCc2nc3ccccc3[nH]2)cc1 , please?
19.1

Recorded IC50 for c1ccc2c(Cc3nc4ccccc4[nH]3)cccc2c1 , please?
25.1

Recorded IC50 for CCOc1ccc2[nH]cnc2c1 , please?
67.6

Recorded IC50 for Clc1ccc(Cc2nc3ccccc3[nH]2)c(Cl)c1 , please?
15.1

Recorded IC50 for Cc1nc2cc(Cl)cc(Cl)c2[nH]1 , please?
100

Recorded IC50 for c1ccc(OCCc2nc3ccccc3[nH]2)cc1 , please?
25.1

Recorded IC50 for O=C(c1ccccc1)c1ccc2[nH]cnc2c1 , please?
20

Recorded IC50 for CCCCc1nc2cc(C)c(C)cc2[nH]1 , please?
55

Recorded IC50 for Cc1cccc(Cc2nc3ccccc3[nH]2)c1C , please?
53.7

Recorded IC50 for O=C(Nc1cc(Cl)cc2nc[nH]c12)c1ccccc1 , please?
26.9

Recorded IC50 for c1ccc(-c2nc3ccccc3[nH]2)cc1 , please?
55

Recorded IC50 for Cc1ccc(OCc2nc3ccccc3[nH]2)cc1C , please?
25.7
